// data source = patent US20030068675

- Tgt: T1, ZFP SBS#760 (synthetic)
- T1 chain: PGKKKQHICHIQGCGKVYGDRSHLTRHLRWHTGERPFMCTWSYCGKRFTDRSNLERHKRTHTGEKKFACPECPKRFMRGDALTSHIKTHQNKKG
- Assay Name: EMSA
- Study Conditions: tags: MBP fusion
Metric Name: Kd (nM)
State just the number; it will be interpreted in nM.

Notebook: TTGGACGGCG (dsDNA) DNA 1: TTGGACGGCG DNA 2: CGCCGTCCAA , Kd read as 148
